// inhibition lookup, one value per entry
target: BDNF/NT-3 growth factors receptor (Homo sapiens); conditions: at 0.1 µM;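 also: each value is a mean percent inhibition of TrkB kinase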
State just the number; it will be interpreted in %.

Illustrative cases are given below, each with its answer.
> print(dat)
                                   molecule  metric.name  meas.value
1  CCS(=O)(=O)c1ccc(OC)c(Nc2ncc(-c3cccc(C(C)=O)c3)o2)c1   inhibition        4.28
2  Fc1ccc(Nc2nccc(-c3c(-c4ccc(C(F)(F)F)cc4)nn4ncccc34)n2)cc1F   inhibition        2.27
3  COc1cc(N2CCN(C(C)C)CC2)ccc1Nc1nc(Nc2cccc(F)c2C(=O)O)c2cc[nH]c2n1   inhibition        3.78

May I ask what inhibition has been recorded for COc1cc(N2CCN(C(C)C)CC2)ccc1Nc1nc(Nc2cccc3ncccc23)c2cc[nH]c2n1 ?
0.73

Give its inhibition value. Item: CCN1CCC(C(=O)Nc2n[nH]c3nnc(-c4cccc(F)c4F)cc23)CC1
0.46

GET /values?readout=inhibition&item= CNC(=O)c1cncc(/C=C/c2ccccc2C)c1
2.61

Endpoint output: inhibition of CNC(=O)c1sc(-n2cnc3cc(OC)c(OC)cc32)cc1OCc1ccccc1C(F)(F)F . Value?
1.8

Report inhibition for COC(=O)Nc1nc2cc(Oc3ccc(NC(=O)Nc4ccccc4)cc3)ccc2[nH]1 please.
1.72

Quick one: inhibition of Cc1c2ccc(N(C)c3ccnc(Nc4cccc(S(N)(=O)=O)c4)n3)cc2nn1C ?
4.05

Bench note: what inhibition did CC1(C)CC(n2cnc(-c3ccc(F)cc3)c2-c2ccnc(N)n2)CC(C)(C)N1 show?
1.16

# lookup: inhibition of CCOc1ccc2c(-c3ccnc(Nc4cc(OC)cc(C(F)(F)F)c4)n3)cnn2n1
-1.33

Requested read-out: inhibition. Entry: NS(=O)(=O)c1cccc(N/C=C2\C(=O)Nc3ccccc32)c1
6.02

Request the reported inhibition associated with COC(=O)Nc1nc2ccc(Oc3ccc(NC(=O)Nc4cc(C(F)(F)F)ccc4F)cc3)cc2s1
24.9

Cited source: ChEMBL document CHEMBL1961873
